- target-of-assay: human σ2 receptor (TMEM97) (Homo sapiens, UniProt Q5BJF2)
- Sequence (Q5BJF2 whole entry): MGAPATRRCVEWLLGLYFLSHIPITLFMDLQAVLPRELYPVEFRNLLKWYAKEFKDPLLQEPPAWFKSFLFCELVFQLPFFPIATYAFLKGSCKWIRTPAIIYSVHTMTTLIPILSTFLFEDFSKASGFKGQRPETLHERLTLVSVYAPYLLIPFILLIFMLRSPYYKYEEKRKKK
- assay-method-text: biochemical
- Format: Expi293 membranes
- condition-description: read-out: % of control remaining
Answer each item with its documented remaining activity at 1 µM.
Write the value in % as a bare number.

Lookup result for C[C@@H](CO)N1CCCN([C@@H](C)C(=O)Nc2cccc(Cl)c2Cl)CC1 [ZINC000375486080] ; measured remaining activity at 1 µM: 48.7

Lookup result for O=C(CC1CCCC1)NC1CCN(C[C@H](O)C2CCCCC2)CC1 [ZINC000191344346] ; measured remaining activity at 1 µM: 8.7

Lookup result for CCc1ccc([C@@H](C)N[C@@H]2CCCN(C(=O)CCC(F)(F)F)C2)s1 [ZINC000574285278] ; measured remaining activity at 1 µM: 76.2

Lookup result for CCN(C(=O)c1ccnc(C2CC2)n1)[C@H]1CCN(CC2CCC2)C1 [ZINC001033973784] ; measured remaining activity at 1 µM: 43.3

Lookup result for N#Cc1sccc1N1CCN(CCCCCn2cccn2)CC1 [ZINC000595632104] ; measured remaining activity at 1 µM: 45.7

Lookup result for O=C(CCc1cc(Br)ccc1F)N1CC[C@@H](CN2CCCC2)C1 [ZINC000135482356] ; measured remaining activity at 1 µM: 21.7

Lookup result for CN1CC[C@@H](C(=O)NC[C@H]2CN(Cc3csnn3)CCCO2)C1 [ZINC001073886256] ; measured remaining activity at 1 µM: 113

Lookup result for CCN1CCN(CCNC(=S)N[C@H](C)c2cccs2)CC1 [ZINC000726467110] ; measured remaining activity at 1 µM: 79.5

Lookup result for C[C@H]1CCC[C@H](NC(=O)C(=O)N2CCC(N3CCN(C)CC3)CC2)CC1 [ZINC000875242850] ; measured remaining activity at 1 µM: 76.2

Lookup result for O=C(Nc1cscc1Cl)C(=O)N[C@@H]1CCN(CC2CC2)C1 [ZINC000635049325] ; measured remaining activity at 1 µM: 53.2

Lookup result for C[C@H](c1ccccc1Br)N(C)C(=O)C[C@@H]1CCCN1 [ZINC000423867812] ; measured remaining activity at 1 µM: 95.6

Lookup result for Cc1cc(C(=O)N2CCCO[C@@H](CNCC(=O)NC3CC3)C2)n(C)n1 [ZINC001199969207] ; measured remaining activity at 1 µM: 124

Lookup result for C[C@]1(c2ccccc2)CCCN(CC(=O)N2CCc3ccccc32)C1 [ZINC000500192494] ; measured remaining activity at 1 µM: 69.3

Lookup result for O=C(NC[C@@H]1CNCCO1)N1CCN(S(=O)(=O)C2CC2)CC1 [ZINC000529344158] ; measured remaining activity at 1 µM: 135

Lookup result for CCC1(C(=O)NCC[C@@H]2CCN(Cc3nccn3C)C2)CCCC1 [ZINC001377717241] ; measured remaining activity at 1 µM: 102

Lookup result for C[C@@H]1C[C@H](NC(=O)C(=O)N(C)Cc2c(Cl)cccc2Cl)CN1C1CC1 [ZINC000574318236] ; measured remaining activity at 1 µM: 100

Lookup result for CC(C)CN1CCC(NC(=O)NNC(=O)C(=O)NC2CC2)CC1 [ZINC000045463977] ; measured remaining activity at 1 µM: 107

Lookup result for OC[C@H](N[C@H]1Cc2[nH]c3ccccc3c2C1)C1CCCCC1 [ZINC000669616349] ; measured remaining activity at 1 µM: 56.6

Lookup result for CN(C/C=C\c1ccc(F)c(F)c1)[C@@H]1COC[C@@H]1O [ZINC000348635286] ; measured remaining activity at 1 µM: 105

Lookup result for CC(=O)N1CCN(C(=O)C(=O)Nc2cnn(-c3ccccn3)c2)CC1 [ZINC000531495018] ; measured remaining activity at 1 µM: 99.3

Lookup result for CN(C)C(=O)c1cncc(N[C@H]2CC[C@H](NC(=O)C(N)=O)CC2)n1 [ZINC001063398490] ; measured remaining activity at 1 µM: 146

Lookup result for CN1CCN(C(=O)C(=O)N2CCCN(C3CCCC3)CC2)CC1=O [ZINC000556797005] ; measured remaining activity at 1 µM: 79.9

Lookup result for CC(C)CO[C@H]1CCN([C@@H](C)C(=O)N(C)Cc2ccc(Br)cc2)C1 [ZINC000468894194] ; measured remaining activity at 1 µM: 35.4

Lookup result for COc1ccc(Br)cc1C/N=C1/NC[C@@H](C)N1 [ZINC000262658947] ; measured remaining activity at 1 µM: 45.4

Lookup result for COCC(COC)N1CCN(S(=O)(=O)c2cnc(C)n2C)CC1 [ZINC000625246444] ; measured remaining activity at 1 µM: 105

Lookup result for O=C1NCC[C@@H]1C(=O)N[C@H]1CCN(CCn2cc(Cl)cn2)C1 [ZINC001015510639] ; measured remaining activity at 1 µM: 87.4

Lookup result for Fc1ccc(C2OCCO2)c(Cl)c1CNC1CC2(CCC2)C1 [ZINC000846106280] ; measured remaining activity at 1 µM: 43.6

Lookup result for COCC1(O)CCN(C[C@@H](O)Cn2cnc3cc(C)c(C)cc32)CC1 [ZINC000270395954] ; measured remaining activity at 1 µM: 121

Lookup result for COc1ccccc1C[C@@](C)(CO)NCc1ccc2c(c1)ncn2C [ZINC000631236280] ; measured remaining activity at 1 µM: 92

Lookup result for C[C@H](NC1CC1)C(=O)NCc1ccc(C(=O)N=c2cc[nH]cc2)cc1 [ZINC000576277949] ; measured remaining activity at 1 µM: 67.2

Lookup result for Cn1nncc1C(=O)NC[C@H]1CC[C@@H](NC(=O)c2cnns2)C1 [ZINC000981250423] ; measured remaining activity at 1 µM: 97.2

Lookup result for COC(=O)c1ccccc1NC(=O)CN1C[C@@H](c2ccccc2)C[C@@H]1C [ZINC000532978237] ; measured remaining activity at 1 µM: 119

Lookup result for CC[C@@H](CO)N1CCC(CCc2ccc(F)cc2F)CC1 [ZINC001460312963] ; measured remaining activity at 1 µM: 8

Lookup result for CCN(C(=O)c1cnccn1)[C@@H]1CCN(CC2CCCCCC2)C1 [ZINC001033739722] ; measured remaining activity at 1 µM: 24.6

Lookup result for N#Cc1ccc(N2CCN(C[C@H](O)CC3CCCC3)CC2)c(F)c1 [ZINC000352856249] ; measured remaining activity at 1 µM: 43
